Numbers sourced from patent US20210130452A1.

- TGT: T1, human IL-17A (human, UniProt Q16552 24-155, biotinylated with Sulfo-NHS-LC-Biotin in the AlphaScreen assays only)
- T1 construct: also called hIL-17A; recombinant human IL-17A
- ASSAY REMARKS: AlphaScreen competition, hIL-17A - IL-17RC-Fc;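 further: Read-out after 1 h at room temperature with the receptor Fc-fusion, Acceptor beads and streptavidin-coated Donor beads present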
Measured IC50 of individual entries
REPORTED PROPERTY: IC50

02A08 (VHH, Class 2 Nanobody (anti-IL-17A and IL-17A/F); not shown: c-myc, His6 tag) VHH: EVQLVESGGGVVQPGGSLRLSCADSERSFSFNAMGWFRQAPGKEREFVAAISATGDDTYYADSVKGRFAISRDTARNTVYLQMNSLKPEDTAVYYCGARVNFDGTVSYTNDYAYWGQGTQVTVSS = 0.419 nM
03C07 (VHH, Class 2 Nanobody (anti-IL-17A and IL-17A/F); not shown: c-myc, His6 tag) VHH: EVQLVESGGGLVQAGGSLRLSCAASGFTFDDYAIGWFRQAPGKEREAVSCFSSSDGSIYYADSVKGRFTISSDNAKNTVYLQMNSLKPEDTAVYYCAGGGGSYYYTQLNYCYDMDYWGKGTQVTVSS = 0.371 nM
13B03 (VHH, Class 4 Nanobody (cross-reactive: anti-IL-17A, IL-17F and IL-17A/F); also called IL17MS13B03; not shown: c-myc, His6 tag) VHH: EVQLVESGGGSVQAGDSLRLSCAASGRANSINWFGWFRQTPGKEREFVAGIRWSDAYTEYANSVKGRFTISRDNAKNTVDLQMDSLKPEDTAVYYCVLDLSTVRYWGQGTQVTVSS = 0.202 nM
03E05 (VHH, Class 1 Nanobody (anti-IL-17A); not shown: c-myc, His6 tag) VHH: EVQLVESGGGLVQAGGSLRLSCAASGVTFDDYSIGWFRQAPGKEREGVSCISSSDGIPYYSDFVKGRFTTSIDNAKNTVYLQMNSLKPEDTAVYYCAAGFGRLCAEFDSWGQGTQVTVSS = 0.38 nM
